- study target: T1, human CXCR4-enriched lipoparticles (LEV101, Integral Molecular) (human, UniProt P61073 1-352)
- T1 construct: Bought reagent; CXCR4 held in lipoparticles captured by biotinylated WGA on an SA chip; also called Lipoparticles containing CXCR4 proteins
- T1 sequence (P61073 whole entry): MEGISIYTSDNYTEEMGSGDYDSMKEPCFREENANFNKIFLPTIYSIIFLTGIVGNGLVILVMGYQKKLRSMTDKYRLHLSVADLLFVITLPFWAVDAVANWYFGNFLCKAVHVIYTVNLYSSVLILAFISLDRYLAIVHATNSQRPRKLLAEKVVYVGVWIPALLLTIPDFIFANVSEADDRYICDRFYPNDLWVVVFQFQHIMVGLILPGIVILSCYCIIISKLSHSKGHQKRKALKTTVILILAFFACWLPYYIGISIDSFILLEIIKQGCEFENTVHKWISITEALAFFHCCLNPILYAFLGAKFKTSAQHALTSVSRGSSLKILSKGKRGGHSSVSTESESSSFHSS
- test method notes: biosensor kinetic titration, Fab over captured human CXCR4 lipoparticles
# reported Kd; entries follow
value kind: Kd (nM)

binder="h3G10.2.37 VH / h3G10.A58A VL Fab (Fab, V domains shown, Tested as Fab) VH: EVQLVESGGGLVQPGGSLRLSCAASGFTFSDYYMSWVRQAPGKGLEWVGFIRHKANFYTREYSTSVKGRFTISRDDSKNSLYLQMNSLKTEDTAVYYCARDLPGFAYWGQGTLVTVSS VL: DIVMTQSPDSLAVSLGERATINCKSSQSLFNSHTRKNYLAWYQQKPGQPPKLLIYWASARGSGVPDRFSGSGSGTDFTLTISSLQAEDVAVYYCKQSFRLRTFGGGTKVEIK" value_kind=Kd measurement=0.32
binder="h3G10.2.37 VH / h3G10.A58B VL Fab (Fab, V domains shown, Tested as Fab) VH: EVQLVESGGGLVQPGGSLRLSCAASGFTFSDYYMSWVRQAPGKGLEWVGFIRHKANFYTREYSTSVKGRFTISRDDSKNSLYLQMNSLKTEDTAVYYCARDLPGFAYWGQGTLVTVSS VL: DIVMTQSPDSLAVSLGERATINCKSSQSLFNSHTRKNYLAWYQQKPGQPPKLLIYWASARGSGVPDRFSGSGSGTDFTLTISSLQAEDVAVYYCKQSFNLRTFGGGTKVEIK" value_kind=Kd measurement=0.56
binder="h3G10.1.91 VH / h3G10.2.72 VL Fab (Fab, V domains shown, Tested as Fab) VH: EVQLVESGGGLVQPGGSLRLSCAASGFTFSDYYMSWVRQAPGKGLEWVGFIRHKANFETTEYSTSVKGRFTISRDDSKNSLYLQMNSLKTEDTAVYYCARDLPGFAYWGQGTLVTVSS VL: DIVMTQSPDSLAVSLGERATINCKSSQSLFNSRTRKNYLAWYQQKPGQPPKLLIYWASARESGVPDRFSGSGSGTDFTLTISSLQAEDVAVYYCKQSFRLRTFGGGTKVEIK" value_kind=Kd measurement=0.33
